tested on: ACHN renal; experiment: NCI-60 one-dose screen, 48 h; conditions: 10 µM unless noted
Compounds without any hit were thinned out: in the full panel of roughly 83,000, 20% have a hit. Calls of active or inactive are those of the source. Rule for the calls: active = growth percent below 10; inactive = the rest.
Labels: active, inactive

* COc1cc(-c2ccc(-[n+]3nc(-c4ccc([N+](=O)[O-])cc4)nn3-c3ccc([N+](=O)[O-])cc3)c(OC)c2)ccc1-[n+]1nc(-c2ccc([N+](=O)[O-])cc2)nn1-c1ccc([N+](=O)[O-])cc1 | active
* CN1CSC(=S)N(Cc2ccccc2)C1 | inactive
* CC(=O)C1Cc2ccccc2C1=O (stereo not given) | inactive
* Cc1onc(-c2ccccc2)c1C(=O)N/N=C/c1cc(Cl)cc(Cl)c1O | inactive
* O=C(O)c1cc2c(s1)C(=O)c1sccc1C2=O | inactive
* COC(=O)c1nc(=S)[nH]c(C(=O)OC)c1C(=O)c1ccc(Cl)c(Cl)c1 | inactive
* CCN(CC)CCNC(Cc1ccccc1)c1ccc(OCc2ccccc2)cc1 (stereo not given) | inactive
* O=C(CCl)N(c1ccccc1)c1ccccc1 | inactive
* CC12CCC(O)CC1=CCC1C2CCC2(C)C3=NN=CC3CC12 (stereo not given) | inactive
* C/C(=N/NC(N)=S)c1ccc(C)cc1 | inactive
* OC(c1cc(C23CC4CC(CC(C4)C2)C3)nc2c(Cl)cc(Cl)cc12)C1CCCCN1 (stereo not given) | active
* OC(CSc1ccccc1)CN1CCN(c2ccc(Cl)cc2)CC1 (stereo not given) | inactive
* CCOC(=O)C1=C(C(=O)c2ccccc2)C(c2cccc([N+](=O)[O-])c2)C(C(=O)c2ccccc2)=C(C(=O)OCC)N1 | inactive
* CC(=O)N1CC(=O)NC1=S | inactive
* CCCCCCCCC(=O)OCCCC(CCC(CCC1CCCO1)OC(=O)CCCCCCCC)OC(=O)CCCCCCCC (stereo not given) | inactive
* CC(C)(C)c1ccc(CCO)cc1 | inactive
* CCCCCCCCCCCCCCCc1ccc(C(=O)C[n+]2ccccc2)cc1 | active
* Oc1c(C(Nc2ccccc2)c2ccccc2)ccc2cccnc12 (stereo not given) | inactive
* COC(=O)c1cc([N+](=O)[O-])cc([N+](=O)[O-])c1Cl | inactive
* CN(C)c1ccc(/C=C/c2nccc3ccccc23)cc1 | inactive
* Cc1cc(=O)oc2cc(O)cc(O)c12 | inactive
* O=C(O)c1cccc2cccc(-c3c4ccc(=O)c(O)c-4oc4c(O)c(O)ccc34)c12 | inactive
* Nc1ccc(-c2ccc(N)c(S(=O)(=O)O)c2)cc1S(=O)(=O)O | inactive
* S=c1[nH]c2cc(Cl)ccc2s1 | inactive
* O=C1CSC(=S)N1Cc1cccnc1 | inactive
* COc1cc([C@@H]2c3cc4c(cc3[C@H](OC3OC5COC(c6ccccc6)OC5C(O)C3O)[C@H]3COC(=O)[C@H]23)OCO4)cc(OC)c1OC (stereo not given in full) | inactive
* CCCCCCCCCCCCN1C(C)=CS/C1=C\C=C\c1scc(C)[n+]1CCCCCCCCCCCC | inactive
* Cc1ccccc1N=C(N)Nc1ccccc1C (tested in a mixture with another compound) | inactive
* O=C(c1ccccc1)c1ccc(O)c2ncccc12 | inactive
* CCCCCCCCc1cc(Cl)c(O)c(Cl)c1 | inactive
* Cc1c(O)ccc(SC#N)c1C | inactive
* Oc1cc(Cl)ccc1Cc1ccc(Cl)cc1O | inactive
* CN(C)c1ccc(/C=C/c2sc3ccc4ccccc4c3[n+]2C)cc1 | active
* O=[N+]([O-])c1cc(-c2ccccc2)c(O)c([N+](=O)[O-])c1 | inactive
* CC(C)N=C(N)/N=C(\N)Nc1ccc2ccc3ccccc3c2c1 | active
* CC1(C)N=c2cc3c(cc2N1c1ccc(Cl)cc1)=Nc1ccccc1N3c1ccc(Cl)cc1 | inactive
* CCOC(=O)c1[nH]c(C#N)c(C(=O)OCC)c1C | inactive
* O=C1C=CC(=O)N1C1CCCCCCCCCCC1 | inactive
* COc1cc(NCc2ccc3nc(N)nc(N)c3c2C)cc(OC)c1OC (tested in a mixture with another compound) | inactive
* Cc1oc2c(C)c3oc(=O)cc(C)c3cc2c1CCl | inactive
* N#CC(I)CS(=O)(=O)c1ccccc1 (stereo not given) | inactive
* CCCCC(C=O)(C=C=C(C)C)CC (stereo not given) | inactive
* CCCCCCCCCCCCSC(=N)N | active
* CCOc1ccc(C(C[N+](=O)[O-])Sc2ccccc2N)cc1 (stereo not given) | inactive
* O/N=C1\c2ccccc2-c2ccc(F)cc21 | inactive
